assayDetails: Solubility
Type: physicochemical
testContext: aqueous buffer; 0.1 M phosphate buffer pH 6.5; read-out: Solubility buffer
Quick rule for you: solubility at 800 µg/mL or higher means True, lower means False.

compound	qualitativeLabel
OCC1O[C@@H](SC2O[C@H](CO)C(O)C(n3cc(-c4ccccn4)nn3)[C@H]2O)C(O)C(n2cc(-c3cc(F)c(F)c(F)c3)nn2)[C@H]1O (stereo in doubt) [Example S8d]	True
OCC1O[C@@H](SC2O[C@H](CO)C(O)C(n3cc(-c4cncnc4)nn3)[C@H]2O)C(O)C(n2cc(-c3cc(F)c(F)c(F)c3)nn2)[C@H]1O (stereo in doubt) [Example S8b]	False
OCC1O[C@@H](SC2O[C@H](CO)C(O)C(n3cc(-c4ccc(F)cn4)nn3)[C@H]2O)C(O)C(n2cc(-c3ccc(F)cn3)nn2)[C@H]1O (stereo in doubt) [Example S4a]	True
OCC1O[C@@H](SC2O[C@H](CO)C(O)C(n3cc(-c4ccncc4)nn3)[C@H]2O)C(O)C(n2cc(-c3cc(F)c(F)c(F)c3)nn2)[C@H]1O (stereo in doubt) [Example S8e]	True
OCC1O[C@@H](SC2O[C@H](CO)C(O)C(n3cc(-c4ncccn4)nn3)[C@H]2O)C(O)C(n2cc(-c3cc(F)c(F)c(F)c3)nn2)[C@H]1O (stereo in doubt) [Example S8c]	True
OCC1O[C@@H](SC2O[C@H](CO)C(O)C(n3cc(-c4ncc(F)cn4)nn3)[C@H]2O)C(O)C(n2cc(-c3cc(F)c(F)c(F)c3)nn2)[C@H]1O (stereo in doubt) [Example S8h]	True

Moving on to the next compound.
-- ask hey, is solubility for this one >= 800 µg/mL? OCC1O[C@@H](S[C@@H]2O[C@H](CO)C(O)C(n3cc(-c4cncnc4)nn3)[C@H]2O)C(O)[C@@H](n2cc(-c3cncnc3)nn2)[C@H]1O (stereo partly drawn) [Example S4e]
-- reply False

* * *

measuredTarget: Galectin 1 (Homo sapiens)
Sequence (P09382 whole entry): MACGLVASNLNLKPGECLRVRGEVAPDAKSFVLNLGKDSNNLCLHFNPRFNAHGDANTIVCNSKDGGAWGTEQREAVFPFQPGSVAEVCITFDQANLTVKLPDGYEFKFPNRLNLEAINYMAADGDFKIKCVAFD
assayDetails: fluorescence anisotropy assay, inhibition of galectin / fluorescein tagged saccharide probe interaction
quantityKind: pKd
Numbers only, as −log10 of the molar value.

For orientation, consider the following solved cases.
compound	pKd
OCC1O[C@@H](SC2O[C@H](CO)C(O)C(n3cc(-c4cncnc4)nn3)[C@H]2O)C(O)C(n2cc(-c3cc(F)c(F)c(F)c3)nn2)[C@H]1O (stereo in doubt) [Example S8b]	7.10
OCC1O[C@@H](SC2O[C@H](CO)C(O)C(n3cc(-c4ccncc4)nn3)[C@H]2O)C(O)C(n2cc(-c3cc(F)c(F)c(F)c3)nn2)[C@H]1O (stereo in doubt) [Example S8e]	7.14
OCC1O[C@@H](SC2O[C@H](CO)C(O)C(n3cc(-c4ccccn4)nn3)[C@H]2O)C(O)C(n2cc(-c3cc(F)c(F)c(F)c3)nn2)[C@H]1O (stereo in doubt) [Example S8d]	7.42

Turning now to a further record.
-- ask Entry OCC1O[C@@H](SC2O[C@H](CO)C(O)C(n3cc(-c4ccccn4)nn3)[C@H]2O)C(O)C(n2cc(-c3ccccn3)nn2)[C@H]1O (stereo in doubt) [Example S4f] : reported pKd = ?
-- reply 6.68

* * *

Please go through the items and note down their pKd.
measuredTarget: galectin-3 (Homo sapiens)
Sequence (P17931 whole entry): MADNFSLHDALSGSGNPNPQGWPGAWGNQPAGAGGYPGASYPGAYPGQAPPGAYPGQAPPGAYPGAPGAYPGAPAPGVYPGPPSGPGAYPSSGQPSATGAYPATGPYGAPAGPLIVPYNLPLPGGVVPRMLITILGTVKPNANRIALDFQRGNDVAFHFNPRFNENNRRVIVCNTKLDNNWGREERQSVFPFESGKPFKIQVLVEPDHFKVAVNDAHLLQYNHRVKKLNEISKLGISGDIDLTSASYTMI
assayDetails: fluorescence anisotropy assay, inhibition of galectin / fluorescein tagged saccharide probe interaction
Give bare numbers, as −log10 of the molar value.

Would you please look over these solved cases?
compound	reported
OCC1O[C@@H](SC2O[C@H](CO)C(O)C(n3cc(-c4cccnc4)nn3)[C@H]2O)C(O)C(n2cc(-c3cc(F)c(F)c(F)c3)nn2)[C@H]1O (stereo in doubt)	8.70
Cn1cncc1-c1cn(C2C(O)[C@H](SC3O[C@H](CO)C(O)C(n4cc(-c5cncn5C)nn4)[C@H]3O)OC(CO)[C@@H]2O)nn1 (stereo in doubt)	6.88
OCC1O[C@@H](S[C@@H]2O[C@H](CO)C(O)C(n3cc(-c4cncnc4)nn3)[C@H]2O)C(O)[C@@H](n2cc(-c3cncnc3)nn2)[C@H]1O (some centres unmarked)	7.36

-- ask Would you kindly share the measured pKd for OCC1O[C@@H](SC2O[C@H](CO)C(O)C(n3cc(-c4ccncc4)nn3)[C@H]2O)C(O)C(n2cc(-c3cc(F)c(F)c(F)c3)nn2)[C@H]1O (stereo in doubt) ?
-- reply 9.00
